The compounds listed here are annotated with their pIC50.
# tested target: UCHL1 (Homo sapiens (Human), UniProt P09936)
# Sequence (P09936 whole entry): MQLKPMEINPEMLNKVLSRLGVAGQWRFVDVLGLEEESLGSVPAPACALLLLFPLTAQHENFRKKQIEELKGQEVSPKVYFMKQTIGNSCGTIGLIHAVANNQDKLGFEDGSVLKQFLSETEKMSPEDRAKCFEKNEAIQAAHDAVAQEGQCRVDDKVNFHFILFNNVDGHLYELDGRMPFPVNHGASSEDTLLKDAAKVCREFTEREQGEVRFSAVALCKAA
# assay notes: UCHL1 biochemical IC50 assay (fluorescence polarisation)
# applied conditions: FLAG-UCHL1; 30 min preincubation at room temp; TAMRA-peptide-ubiquitin substrate 50 nM; read after 2-hour incubation; read-out: IC50 range
pIC50: −log10 of the molar value.
value kind: pIC50

• Cn1nccc1C(=O)Nc1ccc(S(=O)(=O)NC2CCN(C#N)C2)cn1 (stereo not shown) [Example 24] = 4.00 to 5.00
• N#CN1CC[C@H](NS(=O)(=O)c2ccccc2)C1 [Example 6] = 4.00 to 5.00
• N#CN1CCC(NS(=O)(=O)c2ccccc2-c2ccccc2)C1 (stereo not shown) [Example 1] = 4.00 to 5.00
• CN([C@@H]1CCN(C#N)C1)S(=O)(=O)c1ccc(-c2cccnc2)cc1 [Example 20] = 5.00 to 6.00
• N#CN1CC[C@@H](NS(=O)(=O)c2ccc(-c3ccccc3)cc2)C1 [Example 3] = 4.00 to 5.00
• N#CN1CCC(NS(=O)(=O)c2ccccc2)C1 (stereo not shown) [Example 5] = 4.00 to 5.00
• N#CN1CCC(NS(=O)(=O)c2ccc(N3CCCCC3)cc2)C1 (stereo not shown) [Example 14] = 4.00 to 5.00
• N#CN1CCC(NS(=O)(=O)c2ccc(-c3cncnc3)cc2)C1 (stereo not shown) [Example 9] = 5.00 to 6.00
• N#CN1CCC(NS(=O)(=O)c2ccc(Oc3ccc(C(F)(F)F)cn3)cc2)C1 (stereo not shown) [Example 19] = 6.00 to 7.00
• N#CN1CC[C@H](NS(=O)(=O)c2ccc(-c3ccccc3)cc2)C1 [Example 4] = 5.00 to 6.00
• N#CN1CCC(NS(=O)(=O)c2ccc(-c3ccc(F)cc3)cc2)C1 (stereo not shown) [Example 12] = 5.00 to 6.00
• N#CN1CCC(NS(=O)(=O)c2ccc(-c3ccccc3)cn2)C1 (stereo not shown) [Example 11] = 4.00 to 5.00
• N#CN1CCC(NS(=O)(=O)c2ccc(Oc3ccccc3)nc2)C1 (stereo not shown) [Example 16] = 4.00 to 5.00
• CC(C)c1ccc(S(=O)(=O)NC2CCN(C#N)C2)cc1 (stereo not shown) [Example 18] = 4.00 to 5.00
• Cn1cc(-c2ccc(S(=O)(=O)NC3CCN(C#N)C3)cc2)cn1 (stereo not shown) [Example 15] = 5.00 to 6.00
• CN(C1CCN(C#N)C1)S(=O)(=O)c1ccc(Oc2ccc(C(F)(F)F)cn2)cc1 (stereo not shown) [Example 25] = 5.00 to 6.00
• N#CN1CCC(NS(=O)(=O)c2ccc(-c3ccccc3)cc2)C1 (stereo not shown) [Example 2] = 5.00 to 6.00
• N#CN1CCC(NS(=O)(=O)c2ccc(-c3ccncc3)cc2)C1 (stereo not shown) [Example 13] = 5.00 to 6.00
• N#CN1CCC(NS(=O)(=O)c2ccc(OCc3ccccc3)cc2)C1 (stereo not shown) [Example 8] = 5.00 to 6.00
